Assay: Selectivity index, ratio of HC50 for hemolytic activity in sheep RBC to MIC for antibacterial activity against methicillin-resistant Staphylococcus aureus assessed as bacterial growth inhibition
Format: toxicity
Conditions: sheep red blood cells
Assignment: determine reported selectivity ratio for the given compounds.

## Task Sample CCCCCCN(CCOc1ccc(OCCN(CCCCCC)C(=O)[C@@H](N)CCCCN)cc1)C(=O)[C@@H](N)CCCCN.Cl.Cl.Cl.Cl — what was its selectivity ratio?
## Result > 250

## Task Sample CCCCCCN(CCCOc1cc2ccccc2cc1OCCCN(CCCCCC)C(=O)[C@@H](N)CCCCN)C(=O)[C@@H](N)CCCCN.Cl.Cl.Cl.Cl — what was its selectivity ratio?
## Result > 1000

## Task Sample CCCCCCN(CCCCOc1ccc(OCCCCN(CCCCCC)C(=O)[C@@H](N)CCCCN)cc1)C(=O)[C@@H](N)CCCCN.Cl.Cl.Cl.Cl — what was its selectivity ratio?
## Result 217

## Task Sample CCCCCCCCN(CCCCOc1ccc(OCCCCN(CCCCCCCC)C(=O)[C@@H](N)CCCCN)cc1)C(=O)[C@@H](N)CCCCN.Cl.Cl.Cl.Cl — what was its selectivity ratio?
## Result 14

## Task Sample CCCCCCCCN(CCOc1ccc(OCCN(CCCCCCCC)C(=O)[C@@H](N)CCCCN)cc1)C(=O)[C@@H](N)CCCCN.Cl.Cl.Cl.Cl — what was its selectivity ratio?
## Result 93

* * *

Assignment: determine reported selectivity ratio for the given compounds.
Experiment: Selectivity index, ratio of HC50 for hemolytic activity in sheep RBC to MIC for antibacterial activity against methicillin-resistant Staphylococcus aureus assessed as bacterial growth inhibition
Format: toxicity
Conditions: sheep red blood cells

## Task Sample CCCCCCN(CCCOc1ccccc1)C(=O)[C@@H](N)CCCCN.Cl.Cl — what was its selectivity ratio?
## Result > 15.6

## Task Sample CCCCCCCCN(CCCOc1cc2ccccc2cc1OCCCN(CCCCCCCC)C(=O)[C@@H](N)CCCCN)C(=O)[C@@H](N)CCCCN.Cl.Cl.Cl.Cl — what was its selectivity ratio?
## Result 68

## Task Sample CCCCCCCN(CCCOc1ccc(OCCCN(CCCCCCC)C(=O)[C@@H](N)CCCCN)cc1)C(=O)[C@@H](N)CCCCN.Cl.Cl.Cl.Cl — what was its selectivity ratio?
## Result 201

## Task Sample CCCCCCCN(CCOc1ccc(OCCN(CCCCCCC)C(=O)[C@@H](N)Cc2ccccc2)cc1)C(=O)[C@@H](N)Cc1ccccc1.Cl.Cl — what was its selectivity ratio?
## Result 72.5

* * *

Assay: Selectivity index, ratio of HC50 for hemolytic activity in sheep RBC to MIC for antibacterial activity against methicillin-resistant Staphylococcus aureus assessed as bacterial growth inhibition
Format: toxicity
Conditions: erythrocytes
measured_attribute: Ratio
Could you keep your reply to the number by itself?

## Task Sample CCCCCCN(CCCOc1ccc2ccccc2c1-c1c(OCCCN(CCCCCC)C(=O)[C@@H](N)CCCCN)ccc2ccccc12)C(=O)[C@@H](N)CCCCN.Cl.Cl.Cl.Cl (stereo in doubt; 8p) — what was its Ratio?
## Result 117

## Task Sample CCCCCCCCN(CCCOc1ccc2ccccc2c1-c1c(OCCCN(CCCCCCCC)C(=O)[C@@H](N)CCCCN)ccc2ccccc12)C(=O)[C@@H](N)CCCCN.Cl.Cl.Cl.Cl (stereo in doubt; 8r) — what was its Ratio?
## Result 34

## Task Sample CCCCCCCN(CCCOc1ccc2ccccc2c1-c1c(OCCCN(CCCCCCC)C(=O)[C@@H](N)CCCCN)ccc2ccccc12)C(=O)[C@@H](N)CCCCN.Cl.Cl.Cl.Cl (stereo in doubt; 8q) — what was its Ratio?
## Result 3.5

## Task Sample CCCCCCCN(CCCOc1ccc2ccccc2c1-c1c(OCCCN(CCCCCCC)C(=O)[C@@H](N)CCCCN)ccc2ccccc12)C(=O)[C@@H](N)CCCCN.Cl.Cl.Cl.Cl (stereo in doubt; 8n) — what was its Ratio?
## Result 15.5

* * *

Assignment: determine reported log10 HC50 at 1 h for the given compounds.
Assay: Hemolytic activity in sheep RBC assessed as hemolysis incubated for 1 hr by microplate reader method
Assay type: toxicity, cell-based, Ovis aries, Erythrocyte
Details: sheep red blood cells
Would you kindly interpret these values as log10 of HC50 at 1 h expressed in µg/mL?

## Task Sample CCCCCCCCCN(CCCCOc1ccc(OCCCCN(CCCCCCCCC)C(=O)[C@@H](N)CCCCN)cc1)C(=O)[C@@H](N)CCCCN.Cl.Cl.Cl.Cl — what was its log10 HC50 at 1 h?
## Result 1.08

## Task Sample CCCCCCCCCN(CCOc1ccc(OCCN(CCCCCCCCC)C(=O)[C@@H](N)CCCCN)cc1)C(=O)[C@@H](N)CCCCN.Cl.Cl.Cl.Cl — what was its log10 HC50 at 1 h?
## Result 1.32

## Task Sample CCCCCCCN(CCOc1ccc(OCCN(CCCCCCC)C(=O)[C@@H](N)[C@@H](C)CC)cc1)C(=O)[C@@H](N)[C@@H](C)CC.Cl.Cl — what was its log10 HC50 at 1 h?
## Result 1.67

## Task Sample CCCCCCN(CCCCOc1ccc(OCCCCN(CCCCCC)C(=O)[C@@H](N)CCCCN)cc1)C(=O)[C@@H](N)CCCCN.Cl.Cl.Cl.Cl — what was its log10 HC50 at 1 h?
## Result 2.94

## Task Sample CCCCCCCN(CCOc1ccc(OCCN(CCCCCCC)C(=O)[C@@H](N)CCCCN)cc1)C(=O)[C@@H](N)CCCCN.Cl.Cl.Cl.Cl — what was its log10 HC50 at 1 h?
## Result 2.68

* * *

Assay: Hemolytic activity in human erythrocytes assessed as hemolysis
Type: toxicity, cell-based, Erythrocyte
measured_attribute: HC50 (µg/mL)
Reply numerically in µg/mL, unit not repeated.

## Task Sample CCCCCCN(Cc1ccc(-c2ccc(CN(CCCCCC)C(=O)[C@@H](N)CCCCN)cc2)cc1)C(=O)[C@@H](N)CCCCN.O=C(O)C(F)(F)F.O=C(O)C(F)(F)F.O=C(O)C(F)(F)F.O=C(O)C(F)(F)F — what was its HC50?
## Result 230

* * *

System: Erythrocyte
Experiment: Hemolytic activity in sheep RBC assessed as hemolysis incubated for 1 hr by microplate reader method
Type: toxicity, cell-based, Ovis aries
Settings: erythrocyte, 1 h
measured_attribute: HC50 (µg/mL)
Reply numerically in µg/mL, unit not repeated.

## Task Quick check: HC50 on Erythrocyte, item CCCCCCCN(CCCOc1ccc2ccccc2c1-c1c(OCCCN(CCCCCCC)C(=O)[C@@H](N)CCCCN)ccc2ccccc12)C(=O)[C@@H](N)CCCCN.Cl.Cl.Cl.Cl (stereo in doubt; 8n) ?
## Result 31

## Task Quick check: HC50 on Erythrocyte, item CCCCCCN(CCCOc1ccc2ccccc2c1-c1c(OCCCN(CCCCCC)C(=O)[C@@H](N)CCCCN)ccc2ccccc12)C(=O)[C@@H](N)CCCCN.Cl.Cl.Cl.Cl (stereo in doubt; 8p) ?
## Result 117

## Task Quick check: HC50 on Erythrocyte, item CCCCCCCN(CCCOc1ccc2ccccc2c1-c1c(OCCCN(CCCCCCC)C(=O)[C@@H](N)CCCCN)ccc2ccccc12)C(=O)[C@@H](N)CCCCN.Cl.Cl.Cl.Cl (stereo in doubt; 8q) ?
## Result 7

## Task Quick check: HC50 on Erythrocyte, item CCCCCCCCN(CCCOc1ccc2ccccc2c1-c1c(OCCCN(CCCCCCCC)C(=O)[C@@H](N)CCCCN)ccc2ccccc12)C(=O)[C@@H](N)CCCCN.Cl.Cl.Cl.Cl (stereo in doubt; 8r) ?
## Result 136

* * *

Test: Selectivity index, ratio of HC50 for hemolytic activity in sheep RBC to IC50 for antibacterial activity against Enterococcus faecalis assessed as bacterial growth inhibition
Type: toxicity
Conditions: sheep red blood cells
measured_attribute: selectivity ratio

## Task Sample CCCCCCN(CCCOc1ccccc1-c1ccccc1OCCCN(CCCCCC)C(=O)[C@@H](N)CCCCN)C(=O)[C@@H](N)CCCCN.Cl.Cl.Cl.Cl — what was its selectivity ratio?
## Result > 2000

* * *

Assignment: determine reported log10 HC50 at 1 h for the given compounds.
Test: Hemolytic activity in sheep RBC assessed as hemolysis incubated for 1 hr by microplate reader method
Assay type: toxicity, cell-based, Ovis aries, Erythrocyte
Conditions: sheep red blood cells
Would you kindly interpret these values as log10 of HC50 at 1 h expressed in µg/mL?

## Task Sample CCCCCCCN(CCOc1ccc(OCCN(CCCCCCC)C(=O)[C@H](C)N)cc1)C(=O)[C@H](C)N.Cl.Cl — what was its log10 HC50 at 1 h?
## Result 1.88

## Task Sample CCCCCCCCN(CCCOc1ccccc1)C(=O)[C@@H](N)CCCCN.Cl.Cl — what was its log10 HC50 at 1 h?
## Result 2.44

## Task Sample CCCCCCCCCN(CCCOc1ccccc1)C(=O)[C@@H](N)CCCCN.Cl.Cl — what was its log10 HC50 at 1 h?
## Result 1.95

## Task Sample CCCCCCCN(CCCOc1ccccc1)C(=O)[C@@H](N)CCCCN.Cl.Cl — what was its log10 HC50 at 1 h?
## Result 2.89

## Task Sample CCCCCCN(CCCOc1ccc(-c2ccc(OCCCN(CCCCCC)C(=O)[C@@H](N)CCCCN)cc2)cc1)C(=O)[C@@H](N)CCCCN.Cl.Cl.Cl.Cl — what was its log10 HC50 at 1 h?
## Result 2.23

## Task Sample CCCCCCCCN(CCCOc1cccc(-c2cccc(OCCCN(CCCCCCCC)C(=O)[C@@H](N)CCCCN)c2)c1)C(=O)[C@@H](N)CCCCN.Cl.Cl.Cl.Cl — what was its log10 HC50 at 1 h?
## Result 1.18

## Task Sample CCCCCCCCN(CCCOc1cc2ccccc2cc1OCCCN(CCCCCCCC)C(=O)[C@@H](N)CCCCN)C(=O)[C@@H](N)CCCCN.Cl.Cl.Cl.Cl — what was its log10 HC50 at 1 h?
## Result 1.83

## Task Sample CCCCCCCCN(CCCOc1ccc2c(OCCCN(CCCCCCCC)C(=O)[C@@H](N)CCCCN)cccc2c1)C(=O)[C@@H](N)CCCN.Cl.Cl.Cl.Cl — what was its log10 HC50 at 1 h?
## Result 1.15

## Task Sample CCCCCCCCN(CCCCOc1ccc(OCCCCN(CCCCCCCC)C(=O)[C@@H](N)CCCCN)cc1)C(=O)[C@@H](N)CCCCN.Cl.Cl.Cl.Cl — what was its log10 HC50 at 1 h?
## Result 1.45

## Task Sample CCCCCCCCN(CCCOc1ccc2ccccc2c1-c1c(OCCCN(CCCCCCCC)C(=O)[C@@H](N)CCCCN)ccc2ccccc12)C(=O)[C@@H](N)CCCCN.Cl.Cl.Cl.Cl (stereo in doubt; 8o) — what was its log10 HC50 at 1 h?
## Result 2.00

## Task Sample CCCCCCCCN(CCCOc1ccc(OCCCN(CCCCCCCC)C(=O)[C@@H](N)CCCCN)cc1)C(=O)[C@@H](N)CCCCN.Cl.Cl.Cl.Cl — what was its log10 HC50 at 1 h?
## Result 1.57

## Task Sample CCCCCCCCN(CCCOc1ccccc1-c1ccccc1OCCCN(CCCCCCCC)C(=O)[C@@H](N)CCCCN)C(=O)[C@@H](N)CCCCN.Cl.Cl.Cl.Cl — what was its log10 HC50 at 1 h?
## Result 1.30

## Task Sample CCCCCCCCCN(CCCOc1ccc(OCCCN(CCCCCCCCC)C(=O)[C@@H](N)CCCCN)cc1)C(=O)[C@@H](N)CCCCN.Cl.Cl.Cl.Cl — what was its log10 HC50 at 1 h?
## Result 1.04

## Task Sample CCCCCCCN(CCCOc1cccc(OCCCN(CCCCCCC)C(=O)[C@@H](N)CCCCN)c1)C(=O)[C@@H](N)CCCCN.Cl.Cl.Cl.Cl — what was its log10 HC50 at 1 h?
## Result 2.91

## Task Sample CCCCCCCN(CCCOc1ccc(OCCCN(CCCCCCC)C(=O)[C@@H](N)CCCCN)cc1)C(=O)[C@@H](N)CCCCN.Cl.Cl.Cl.Cl — what was its log10 HC50 at 1 h?
## Result 2.60

## Task Sample CCCCCCN(CCCOc1ccc2ccccc2c1-c1c(OCCCN(CCCCCC)C(=O)[C@@H](N)CCCCN)ccc2ccccc12)C(=O)[C@@H](N)CCCCN.Cl.Cl.Cl.Cl (stereo in doubt; 8m) — what was its log10 HC50 at 1 h?
## Result 1.79

## Task Sample CCCCCCCCN(CCOc1ccc(OCCN(CCCCCCCC)C(=O)[C@@H](N)CCCCN)cc1)C(=O)[C@@H](N)CCCCN.Cl.Cl.Cl.Cl — what was its log10 HC50 at 1 h?
## Result 1.97

## Task Sample CCCCCCN(CCCOc1cccc(-c2cccc(OCCCN(CCCCCC)C(=O)[C@@H](N)CCCCN)c2)c1)C(=O)[C@@H](N)CCCCN.Cl.Cl.Cl.Cl — what was its log10 HC50 at 1 h?
## Result 2.33

## Task Sample CCCCCCN(Cc1ccc(-c2ccc(CN(CCCCCC)C(=O)[C@@H](N)CCCCN)cc2)cc1)C(=O)[C@@H](N)CCCCN.O=C(O)C(F)(F)F.O=C(O)C(F)(F)F.O=C(O)C(F)(F)F.O=C(O)C(F)(F)F — what was its log10 HC50 at 1 h?
## Result 2.44
